# SYSTEM: Serine/threonine-protein kinase 3 (Homo sapiens) (UniProt Q13188)
# Sequence (Q13188 whole entry): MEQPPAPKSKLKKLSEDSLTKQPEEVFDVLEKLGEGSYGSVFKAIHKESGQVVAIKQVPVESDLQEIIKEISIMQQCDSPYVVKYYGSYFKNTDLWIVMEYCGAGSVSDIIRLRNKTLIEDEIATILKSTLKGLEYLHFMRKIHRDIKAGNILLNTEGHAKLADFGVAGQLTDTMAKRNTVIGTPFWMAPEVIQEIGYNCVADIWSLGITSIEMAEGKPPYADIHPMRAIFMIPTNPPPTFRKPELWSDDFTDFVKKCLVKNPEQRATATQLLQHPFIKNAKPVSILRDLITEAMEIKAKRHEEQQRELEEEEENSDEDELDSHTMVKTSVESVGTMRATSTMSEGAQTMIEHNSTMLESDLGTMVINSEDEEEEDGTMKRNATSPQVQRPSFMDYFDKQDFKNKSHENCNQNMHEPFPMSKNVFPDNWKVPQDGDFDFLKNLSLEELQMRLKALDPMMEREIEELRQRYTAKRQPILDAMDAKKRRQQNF
# EXPERIMENTAL_SETUP: at 10 µM
Could you please report measured residual activity for the items listed next?
Answer format reminder: number followed by unit.

Ask: Consider the compound shown here: O=c1[nH]c2ccccc2n1C1CCN(Cc2ccc(-c3nc4cc5[nH]cnc5cc4nc3-c3ccccc3)cc2)CC1 What is its recorded residual activity?
Reply: 80%

Ask: Param item: O=C1NC(=O)c2c1c1c3ccccc3n3c1c1c2c2ccccc2n1C1CCC3O1
Reply: 12%

Ask: Param item: COc1ccc2c(c[n+](C)c3c4cc5c(cc4ccc23)OCO5)c1OC
Reply: 94%

Ask: Param item: COc1cc2ncnc(Nc3ccc(OCc4ccccc4)cc3)c2cc1OC
Reply: 81%

###

# SYSTEM: Serine/threonine-protein kinase mTOR (Homo sapiens) (UniProt P42345)
# EXPERIMENTAL_SETUP: at 1 µM
MEASUREMENT_LABEL: residual activity (%)
Report as a plain number; the unit % is understood.

Ask: Consider the compound shown here: O=c1[nH]c2ccccc2n1C1CCN(Cc2ccc(-c3nc4cc5[nH]cnc5cc4nc3-c3ccccc3)cc2)CC1 What is its recorded residual activity?
Reply: 89

Ask: Param item: O=C1Nc2ccc3ncsc3c2/C1=C/c1c[nH]cn1
Reply: 99

Ask: Param item: O=C1NC(=O)c2c1c1c3ccccc3n3c1c1c2c2ccccc2n1C1CCC3O1
Reply: 93

Ask: Param item: COC(=O)[C@@]1(O)C[C@H]2O[C@]1(C)n1c3ccccc3c3c4c(c5c6ccccc6n2c5c31)C(=O)NC4
Reply: 89

Ask: Param item: N/C(=N\[N+](=O)[O-])N/N=C\c1ccc(-c2cccc([N+](=O)[O-])c2)o1
Reply: 125

Ask: Param item: CC(C)[C@H](CO)Nc1nc(Nc2cccc(Cl)c2)c2ncn(C(C)C)c2n1
Reply: 101

###

# SYSTEM: Serine/threonine-protein kinase D1 (Homo sapiens) (UniProt Q15139)
# Sequence (Q15139 whole entry): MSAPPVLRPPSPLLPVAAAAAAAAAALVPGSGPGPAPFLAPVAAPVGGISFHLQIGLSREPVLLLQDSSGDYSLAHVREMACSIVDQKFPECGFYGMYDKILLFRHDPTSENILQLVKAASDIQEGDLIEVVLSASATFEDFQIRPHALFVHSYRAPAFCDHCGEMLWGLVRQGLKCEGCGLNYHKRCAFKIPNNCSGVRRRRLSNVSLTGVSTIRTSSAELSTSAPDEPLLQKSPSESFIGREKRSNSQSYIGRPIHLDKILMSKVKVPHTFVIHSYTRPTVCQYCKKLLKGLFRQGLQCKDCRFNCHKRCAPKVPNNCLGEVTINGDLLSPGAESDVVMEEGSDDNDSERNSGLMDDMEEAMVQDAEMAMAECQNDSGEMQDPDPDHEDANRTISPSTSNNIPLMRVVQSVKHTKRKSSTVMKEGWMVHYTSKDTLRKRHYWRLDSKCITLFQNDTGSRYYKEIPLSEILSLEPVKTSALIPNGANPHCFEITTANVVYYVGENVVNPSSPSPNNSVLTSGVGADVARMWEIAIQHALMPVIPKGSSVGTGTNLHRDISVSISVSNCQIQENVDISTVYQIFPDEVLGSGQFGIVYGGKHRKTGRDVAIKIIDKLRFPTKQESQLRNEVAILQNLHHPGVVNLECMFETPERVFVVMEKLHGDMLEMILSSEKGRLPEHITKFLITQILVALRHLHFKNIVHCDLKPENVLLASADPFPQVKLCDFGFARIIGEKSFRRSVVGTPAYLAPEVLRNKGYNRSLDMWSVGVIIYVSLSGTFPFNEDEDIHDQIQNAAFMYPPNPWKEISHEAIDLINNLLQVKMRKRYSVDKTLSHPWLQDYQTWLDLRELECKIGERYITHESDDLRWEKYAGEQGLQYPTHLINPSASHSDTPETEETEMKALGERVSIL
# EXPERIMENTAL_SETUP: at 1 µM
Could you please report measured residual activity for the items listed next?
Report as a plain number; the unit % is understood.

Ask: Consider the compound shown here: COC(=O)[C@@]1(O)C[C@H]2O[C@]1(C)n1c3ccccc3c3c4c(c5c6ccccc6n2c5c31)C(=O)NC4 What is its recorded residual activity?
Reply: 1

Ask: Param item: C[S+]([O-])c1ccc(-c2nc(-c3ccc(F)cc3)c(-c3ccncc3)[nH]2)cc1 (centres undefined)
Reply: 123

Ask: Param item: O=c1[nH]c2ccccc2n1C1CCN(Cc2ccc(-c3nc4cc5[nH]cnc5cc4nc3-c3ccccc3)cc2)CC1
Reply: 96

Ask: Param item: O=C1NC(=O)c2c1c1c3ccccc3n3c1c1c2c2ccccc2n1C1CCC3O1
Reply: 87

###

# SYSTEM: CDK6/cyclin D3 (Homo sapiens) (UniProt P30281+Q00534)
# EXPERIMENTAL_SETUP: at 10 µM
# Description: Millipore: Percentage of residual kinase activity of CDK6 at 10uM relative to control. Control inhibitor: Phosphoric acid* at 0.3uM. Buffer: 8 mM MOPS pH 7.0, 0.2 mM EDTA
API: label(entry) gives 1 if the entry's residual activity is strictly smaller than 30%; on equality or larger values it gives 0.

Ask: Confirm or reject: residual activity of C[S+]([O-])c1ccc(-c2nc(-c3ccc(F)cc3)c(-c3ccncc3)[nH]2)cc1 (stereo unspecified) lies strictly below 30%
Reply: 0

Ask: Param item: O=C1c2ccccc2-c2nc3nnnn3nc21
Reply: 0

Ask: Param item: COc1cc2ncnc(Nc3ccc(OCc4ccccc4)cc3)c2cc1OC
Reply: 0

Ask: Param item: c1cc(-c2cnn3cc(-c4ccc(OCCN5CCCCC5)cc4)cnc23)ccn1
Reply: 1

Ask: Param item: CCn1cnc2c(Nc3cccc(Cl)c3)nc(N[C@@H]3CCCC[C@@H]3N)nc21
Reply: 0

Ask: Param item: COC(=O)[C@@]1(O)C[C@H]2O[C@]1(C)n1c3ccccc3c3c4c(c5c6ccccc6n2c5c31)C(=O)NC4
Reply: 1
